Listed compounds paired with reported MIC
- System: Pseudomonas aeruginosa KCTC 1637
- method.summary: ≥ marks a high value that may be exact or a test limit, other limits are often not marked, values filed in µg/mL are converted to µM
Quick note: give the figure in µM, leave out the unit.

Below, 2 compounds whose answers are already recorded.
compound="CC[C@H](C)[C@H](NC(=O)[C@H](CCCCN)NC(=O)[C@H](CCCCN)NC(=O)[C@H](Cc1ccccc1)NC(=O)[C@H](CC(C)C)NC(=O)[C@H](CCCCN)NC(=O)[C@H](Cc1c[nH]c2ccccc12)NC(=O)[C@@H](N)CCCCN)C(=O)N1CCC[C@H]1C(=O)N[C@@H](CCCCN)C(=O)N[C@@H](Cc1ccccc1)C(=O)N[C@@H](CC(C)C)C(=O)N[C@@H](Cc1cnc[nH]1)C(=O)N[C@@H](CO)C(=O)N[C@@H](C)C(=O)N[C@@H](CCCCN)C(=O)N[C@@H](CCCCN)C(=O)N[C@@H](Cc1ccccc1)C(N)=O [KWKLFKKIPKFLHSAKKF]" property_name=MIC value_observed=3.12
compound="CC(C)C[C@H](NC(=O)[C@H](CC(C)C)NC(=O)[C@H](Cc1c[nH]c2ccccc12)NC(=O)[C@H](CCCCN)NC(=O)[C@H](CC(C)C)NC(=O)[C@H](Cc1c[nH]c2ccccc12)NC(=O)[C@H](CC(C)C)NC(=O)[C@H](CC(C)C)NC(=O)[C@H](Cc1c[nH]c2ccccc12)NC(=O)[C@H](CC(C)C)NC(=O)[C@@H](N)CCCCN)C(N)=O [KLWLLWLKWLL]" property_name=MIC value_observed=16

Attention now turns to another entry.
Query: MIC; subject: NC(=O)[C@H](CCCN=C(N)N)NC(=O)[C@H](Cc1c[nH]c2ccccc12)NC(=O)[C@H](CCCN=C(N)N)NC(=O)[C@H](Cc1c[nH]c2ccccc12)NC(=O)[C@H](CCCN=C(N)N)NC(=O)[C@@H](N)Cc1c[nH]c2ccccc12 [WRWRWR] 15.3

----------
- System: Candida albicans ATCC 10231
property.name: MIC

Below, 2 compounds whose answers are already recorded.
compound="CC[C@H](C)[C@H](NC(=O)[C@H](CCCN=C(N)N)NC(=O)CNC(=O)[C@H](CC(C)C)NC(=O)[C@H](CCCCN)NC(=O)[C@H](CCCCN)NC(=O)[C@H](CO)NC(=O)[C@H](Cc1ccccc1)NC(=O)[C@H](Cc1c[nH]c2ccccc12)NC(=O)[C@H](CCCCN)NC(=O)[C@@H](NC(=O)[C@@H](N)Cc1ccccc1)C(C)C)C(=O)N[C@@H](CC(C)C)C(N)=O [FVKWFSKKLGRIL]" target_entity="Candida albicans ATCC 10231" value_observed="30 µM"
compound="CC(C)[C@H](NC(=O)[C@H](CCCCN)NC(=O)[C@H](C)NC(=O)[C@@H](NC(=O)[C@@H](NC(=O)[C@H](CCCN=C(N)N)NC(=O)[C@H](CCCN=C(N)N)NC(=O)[C@H](Cc1c[nH]c2ccccc12)NC(=O)[C@H](C)NC(=O)CN)[C@@H](C)O)C(C)C)C(=O)N[C@@H](CCCN=C(N)N)C(=O)N[C@@H](CCCCN)C(N)=O [GAWRRTVAKVRK]" target_entity="Candida albicans ATCC 10231" value_observed="50 µM"

Attention now turns to another entry.
Lab request: please report MIC under test system Candida albicans ATCC 10231 for CC(C)C[C@H](NC(=O)[C@H](CC(C)C)NC(=O)[C@H](CO)NC(=O)[C@H](CCC(N)=O)NC(=O)[C@@H](NC(=O)[C@@H](NC(=O)[C@H](CCCCN)NC(=O)[C@@H]1CCCN1C(=O)[C@H](CC(=O)O)NC(=O)[C@@H](N)CC(C)C)C(C)C)C(C)C)C(N)=O [LDPKVVQSLL] > 200 µM
